target: KRAS G12D/RAF1 (Homo sapiens, UniProt P01116, G12D); construct: His6-MBP (N, cleaved yes); made in house; host or cells: E. coli; assay: Protein-protein interaction (PPI) HTRF assay KRAS G12D/RAF1; format: binding; settings: Table 4
Sequence (P01116 with tags, fused parts or gaps isoform P01116-2 G12D): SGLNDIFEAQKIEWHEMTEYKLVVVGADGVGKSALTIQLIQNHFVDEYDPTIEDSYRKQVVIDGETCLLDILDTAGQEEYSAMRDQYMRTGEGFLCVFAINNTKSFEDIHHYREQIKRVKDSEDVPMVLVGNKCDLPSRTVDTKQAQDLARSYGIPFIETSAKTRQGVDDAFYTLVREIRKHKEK
endpoint name: IC50

Report IC50 for N#Cc1c(N2C[C@H]3CC[C@@H](C2)N3)nc(OCc2n[nH]cc2Cl)nc1N1CC2(CCc3sc(N)c(C#N)c32)C1 tested on KRAS G12D/RAF1 (Homo sapiens, UniProt P01116, G12D). 10 to 100 µM

Report IC50 for N#Cc1c(N2C[C@H]3CC[C@@H](C2)N3)nc(OCC2(CN3CCOCC3)CC2)nc1N1CC2(CCc3sc4[nH]cnc(=O)c4c32)C1 tested on KRAS G12D/RAF1 (Homo sapiens, UniProt P01116, G12D). > 100 µM

Report IC50 for N#Cc1c(N)sc2c1C1(CC2)CN(c2nc(OCC3(CN4CCOCC4)CC3)nc(N3C[C@H]4CC[C@@H](C3)N4)c2F)C1 tested on KRAS G12D/RAF1 (Homo sapiens, UniProt P01116, G12D). 0.1 to 1 µM

Report IC50 for N#Cc1c(N2C[C@H]3CC[C@@H](C2)N3)nc(OCC2(CN3CCOCC3)CC2)nc1N1CC2(C1)C(=O)CCc1ccccc12 tested on KRAS G12D/RAF1 (Homo sapiens, UniProt P01116, G12D). > 100 µM

Report IC50 for N#Cc1c(N2C[C@H]3CC[C@@H](C2)N3)nc(OCC2(CN3CCOCC3)CC2)nc1N1CC2(CCCc3sc(N)c(C#N)c32)C1 tested on KRAS G12D/RAF1 (Homo sapiens, UniProt P01116, G12D). 0.1 to 1 µM

Report IC50 for CN(C)C(=O)c1nn2c(c1Cl)CN(c1nc(OC[C@@]34CCCN3C[C@H](F)C4)nc(N3CC4(C3)C(=O)Cc3ccccc34)c1C#N)CCC2 tested on KRAS G12D/RAF1 (Homo sapiens, UniProt P01116, G12D). > 100 µM

Report IC50 for N#Cc1c(N2CCCCCC2)nc(OC[C@@]23CCCN2C[C@H](F)C3)nc1N1CC2(CCc3sc(N)c(C#N)c32)C1 tested on KRAS G12D/RAF1 (Homo sapiens, UniProt P01116, G12D). 1 to 10 µM

Report IC50 for N#Cc1c(N2C[C@H]3CC[C@@H](C2)N3)nc(OC[C@@H]2CCN2CC(F)(F)F)nc1N1CC2(CCc3sc(N)c(C#N)c32)C1 tested on KRAS G12D/RAF1 (Homo sapiens, UniProt P01116, G12D). 10 to 100 µM

Report IC50 for Cc1nc(-c2nn3c(c2Cl)CN(c2nc(OC[C@@]45CCCN4C[C@H](F)C5)nc(N4CC5(CCc6sc(N)c(C#N)c65)C4)c2C#N)CCC3)no1 tested on KRAS G12D/RAF1 (Homo sapiens, UniProt P01116, G12D). 1 to 10 µM

Report IC50 for CN(C)C1(COc2nc(N3C[C@H]4CC[C@@H](C3)N4)c(C#N)c(N3CC4(CCc5sc(N)c(C#N)c54)C3)n2)CC1 tested on KRAS G12D/RAF1 (Homo sapiens, UniProt P01116, G12D). 10 to 100 µM

Report IC50 for N#Cc1c(N)sc2c1C1(CC2)CN(c2nc(OC[C@@]34CCCN3C[C@H](F)C4)nc(N3CCCC(C#N)CC3)c2F)C1 (stereo partly shown) tested on KRAS G12D/RAF1 (Homo sapiens, UniProt P01116, G12D). 1 to 10 µM

Report IC50 for N#CNC1CCCN(c2nc(OC[C@@]34CCCN3C[C@H](F)C4)nc(N3CC4(CCc5sc(N)c(C#N)c54)C3)c2F)C1 (stereo partly shown) tested on KRAS G12D/RAF1 (Homo sapiens, UniProt P01116, G12D). 0.1 to 1 µM

Report IC50 for CN(C)C(=O)c1nn2c(c1Cl)CN(c1nc(OC[C@@]34CCCN3C[C@H](F)C4)nc(N3CC4(C3)C(=O)CCc3ccccc34)c1C#N)CCC2 tested on KRAS G12D/RAF1 (Homo sapiens, UniProt P01116, G12D). > 100 µM
